Reported self-cleavage values for the following variants.
B1: CPEB3 Ribozyme (parent)
chain: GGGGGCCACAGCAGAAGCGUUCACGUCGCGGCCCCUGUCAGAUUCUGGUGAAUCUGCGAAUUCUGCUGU

Variants of: B1
assay.explanation: self-cleavage, relative activity (ratio to wild type); higher = more cleavage; co-transcriptional

| mutant.code | self-cleavage |
| --- | --- |
| C22G A52G | 0.124 |
| G17C U49A | 0.149 |
| U26A U36A | 0.15 |
| G37C G47U | 0.209 |
| A40G G50A | 0.918 |
